Would you kindly list IC50 for each of these molecules?
TESTED SYSTEM: various mutants of kinase EGFR (BaF3 cell lines stably transfected with kinase) (Homo sapiens, UniProt P00533, L858R/T790M)
Construct: expressed in transfected cells; host or cells: BaF3
Sequence (P00533 25-1210 T790M/L858R): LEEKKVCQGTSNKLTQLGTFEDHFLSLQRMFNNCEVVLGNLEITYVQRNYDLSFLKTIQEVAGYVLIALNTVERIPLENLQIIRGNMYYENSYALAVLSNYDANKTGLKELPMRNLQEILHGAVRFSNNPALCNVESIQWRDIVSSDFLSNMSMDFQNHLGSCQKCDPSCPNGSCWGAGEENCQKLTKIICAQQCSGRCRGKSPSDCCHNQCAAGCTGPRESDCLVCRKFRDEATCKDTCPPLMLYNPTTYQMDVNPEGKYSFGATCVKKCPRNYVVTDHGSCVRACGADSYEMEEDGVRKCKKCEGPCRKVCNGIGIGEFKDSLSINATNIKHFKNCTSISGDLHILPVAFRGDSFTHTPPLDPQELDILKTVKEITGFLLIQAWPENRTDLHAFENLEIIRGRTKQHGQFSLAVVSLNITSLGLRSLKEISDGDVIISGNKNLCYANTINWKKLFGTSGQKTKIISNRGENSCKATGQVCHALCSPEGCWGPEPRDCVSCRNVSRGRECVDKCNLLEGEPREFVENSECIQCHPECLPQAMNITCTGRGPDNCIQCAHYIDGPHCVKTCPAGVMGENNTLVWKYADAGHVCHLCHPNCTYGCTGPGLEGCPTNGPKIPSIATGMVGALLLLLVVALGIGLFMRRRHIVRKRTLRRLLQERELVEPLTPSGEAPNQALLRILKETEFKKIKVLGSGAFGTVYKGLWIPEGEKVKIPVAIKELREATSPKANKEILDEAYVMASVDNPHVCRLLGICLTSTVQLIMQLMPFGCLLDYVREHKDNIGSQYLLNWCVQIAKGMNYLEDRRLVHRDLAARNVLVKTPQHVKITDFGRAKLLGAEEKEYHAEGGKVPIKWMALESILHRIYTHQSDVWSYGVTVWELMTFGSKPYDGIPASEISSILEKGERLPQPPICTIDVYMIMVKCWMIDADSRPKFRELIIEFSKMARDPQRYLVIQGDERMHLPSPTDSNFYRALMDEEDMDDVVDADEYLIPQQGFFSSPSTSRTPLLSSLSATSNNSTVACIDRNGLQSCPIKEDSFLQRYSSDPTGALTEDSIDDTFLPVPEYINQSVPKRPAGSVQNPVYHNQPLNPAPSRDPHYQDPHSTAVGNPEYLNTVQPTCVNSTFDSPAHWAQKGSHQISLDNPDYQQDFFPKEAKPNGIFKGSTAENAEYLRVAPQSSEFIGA
ASSAY INFO: Growth inhibitory activity of compounds on BaF3 cell lines stably transfected with kinase (MTS, 48 h)
Assay type: cell-based
CONDITION CONTEXT: BaF3 cells stably transfected with EGFR L858R/T790M, read-out: IC50, growth inhibition, L858R/T790M

Query: I am curious: what IC50 value has been reported for "COc1cc(N2CCC(N3CCN(C)CC3)CC2)c(C(C)C)cc1Nc1ncc(Br)c(Nc2ccc3nccnc3c2N(C)S(C)(=O)=O)n1" ?
Reply: 50 to 500 nM

Query: For "COc1ccc(C(=O)N2CCN(C)CC2)cc1Nc1ncc(Br)c(Nc2ccc3nccnc3c2N(C)S(C)(=O)=O)n1" then?
Reply: 50 to 500 nM

Query: Request: "CCc1cc(Nc2ncc(Br)c(Nc3ccc4nccnc4c3N(C)S(=O)(=O)C(F)(F)F)n2)c(OC)nc1N1CCC(N2CCN(C)CC2)CC1"
Reply: 50 to 500 nM

Query: One more molecule: "CCN(c1c(Nc2nc(Nc3ccc(N4CCC(N5CCN(C)CC5)CC4)nc3OC)ncc2Cl)ccc2nccnc12)S(C)(=O)=O"
Reply: 50 to 500 nM

Query: Then this molecule: "COc1cc(N2CCC(N(C)C)CC2)c(C)cc1Nc1ncc(Br)c(Nc2ccc3nccnc3c2N(C)S(=O)(=O)C2CC2)n1"
Reply: ≤ 50 nM

Query: // query: "CCS(=O)(=O)N(C)c1c(Nc2nc(Nc3ccc(N4CCC(N5CCN(C)CC5)CC4)cc3OC)ncc2Br)ccc2nccnc12"
Reply: ≤ 50 nM

Query: Item: "CCc1cc(Nc2ncc(Cl)c(Nc3ccc4nccnc4c3N(C3CC3)S(C)(=O)=O)n2)c(OC(F)(F)F)cc1N1CCC(N2CCN(C)CC2)CC1"
Reply: 50 to 500 nM

Query: Again, but for "CCc1cc(Nc2ncc(Br)c(Nc3ccc4nccnc4c3N(C)S(C)(=O)=O)n2)c(OC)cc1N1CCC(N(C)C)CC1"
Reply: ≤ 50 nM

Query: Cool, now CCc1cc(Nc2ncc(C3CC3)c(Nc3ccc4nccnc4c3N(C)S(C)(=O)=O)n2)c(OC)cc1N1CCC(N(C)C)C1 (stereo not shown)
Reply: 50 to 500 nM

Query: Another molecule to check: "COc1cc(N2CCN(C)CC2)ccc1Nc1ncc(Br)c(Nc2ccc3nccnc3c2N(C)S(C)(=O)=O)n1"
Reply: ≤ 50 nM

Query: Field entry: CCc1cc(Nc2ncc(Cl)c(Nc3ccc4nccnc4c3N(CC)S(C)(=O)=O)n2)c(OC)cc1N1CCC(N(C)C)C1 (stereo not shown)
Reply: ≤ 50 nM

Query: Would you mind doing "CCc1cc(Nc2ncc([N+](=O)[O-])c(Nc3ccc4nccnc4c3N(C)S(C)(=O)=O)n2)c(OC)cc1N1CCC(N(C)C)CC1" as well?
Reply: ≤ 50 nM

Query: Next up: "CCc1cc(Nc2ncc(Br)c(Nc3ccc4nccnc4c3N(C)S(=O)(=O)C3CC3)n2)c(OC)nc1N1CCC(N2CCN(C)CC2)CC1"
Reply: ≤ 50 nM

---

TESTED SYSTEM: various mutants of kinase EGFR (BaF3 cell lines stably transfected with kinase) (Homo sapiens, UniProt P00533, T790M, form not given)
Construct: other: BaF3 cells stably transfected with EGFR Δ19Del/T790M; MTS, 48 h; other: BaF3 cell line stably transfected with EGFR Δ19Del/T790M; MTS, 48
Sequence (P00533 with tags, fused parts or gaps DEL746-750/T790M, form open): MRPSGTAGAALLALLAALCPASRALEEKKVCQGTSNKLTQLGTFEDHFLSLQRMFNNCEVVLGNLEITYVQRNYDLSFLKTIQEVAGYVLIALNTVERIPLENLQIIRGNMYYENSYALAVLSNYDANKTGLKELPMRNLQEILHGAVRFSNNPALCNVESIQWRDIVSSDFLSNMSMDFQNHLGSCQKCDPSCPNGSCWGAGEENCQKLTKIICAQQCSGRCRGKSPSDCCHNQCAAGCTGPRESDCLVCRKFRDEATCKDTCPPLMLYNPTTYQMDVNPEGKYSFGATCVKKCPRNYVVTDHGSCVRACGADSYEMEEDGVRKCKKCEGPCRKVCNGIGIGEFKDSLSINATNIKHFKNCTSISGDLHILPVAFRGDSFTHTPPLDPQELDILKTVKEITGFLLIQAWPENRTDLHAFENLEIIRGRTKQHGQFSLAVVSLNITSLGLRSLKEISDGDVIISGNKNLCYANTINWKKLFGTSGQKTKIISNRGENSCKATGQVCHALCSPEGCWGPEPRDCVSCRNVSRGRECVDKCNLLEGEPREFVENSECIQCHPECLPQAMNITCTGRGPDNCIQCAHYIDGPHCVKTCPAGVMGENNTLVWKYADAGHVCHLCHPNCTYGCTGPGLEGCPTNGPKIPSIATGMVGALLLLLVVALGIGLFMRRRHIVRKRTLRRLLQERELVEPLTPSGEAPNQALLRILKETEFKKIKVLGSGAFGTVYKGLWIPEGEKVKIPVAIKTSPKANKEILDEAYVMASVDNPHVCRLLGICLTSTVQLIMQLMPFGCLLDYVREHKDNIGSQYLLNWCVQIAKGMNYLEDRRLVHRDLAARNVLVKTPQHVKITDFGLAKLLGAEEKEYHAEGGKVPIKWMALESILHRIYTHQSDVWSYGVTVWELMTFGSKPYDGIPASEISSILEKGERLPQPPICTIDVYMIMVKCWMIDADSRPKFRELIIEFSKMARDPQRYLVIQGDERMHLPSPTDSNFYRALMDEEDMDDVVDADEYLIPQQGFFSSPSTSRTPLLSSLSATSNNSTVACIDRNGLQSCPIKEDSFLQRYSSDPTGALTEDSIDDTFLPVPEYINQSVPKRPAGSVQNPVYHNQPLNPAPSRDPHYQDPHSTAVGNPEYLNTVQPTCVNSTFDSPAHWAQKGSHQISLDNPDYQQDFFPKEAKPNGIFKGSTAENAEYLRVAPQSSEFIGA
ASSAY INFO: Growth inhibitory activity of compounds on BaF3 cell lines stably transfected with kinase (MTS, 48 h)
Assay type: cell-based
CONDITION CONTEXT: BaF3 cells stably transfected with EGFR Δ19Del/T790M, read-out: IC50, growth inhibition, Δ19Del/T790M
Provide the recorded IC50 for the entries that follow.

Query: IC50 lookup needed for "COc1cc(N2CCC(N3CCN(C)CC3)CC2)c(Cc2ccccc2)cc1Nc1ncc(C(F)(F)F)c(Nc2ccc3nccnc3c2N(C)S(C)(=O)=O)n1" , thanks.
Reply: 500 to 2500 nM

Query: "CCc1cc(Nc2ncc(C)c(Nc3ccc4nccnc4c3N(C)S(C)(=O)=O)n2)c(OC)cc1N1CCC(N(C)C)CC1" , same question.
Reply: ≤ 50 nM

Query: Entry to check: "CCc1cc(Nc2ncc(Cl)c(Nc3ccc4nccnc4c3N(C)S(=O)(=O)C(F)(F)F)n2)c(OC(F)(F)F)cc1N1CCC(N2CCN(C)CC2)CC1"
Reply: 50 to 500 nM

Query: Now this one: "CCc1cc(Nc2ncc(Cl)c(Nc3ccc4nccnc4c3N(C3CC3)S(C)(=O)=O)n2)c(OC)nc1N1CCC(N2CCN(C)CC2)CC1"
Reply: ≤ 50 nM

Query: Now this one: "COc1cc(N2CCC(N(C)C)CC2)c(C)cc1Nc1ncc(Cl)c(Nc2ccc3nccnc3c2N(C)S(C)(=O)=O)n1"
Reply: ≤ 50 nM

Query: Also "COc1cc(N2CCC(N3CCN(C)CC3)CC2)c(C)cc1Nc1ncc(Br)c(Nc2ccc3nccnc3c2N(C)S(=O)(=O)C(F)(F)F)n1" ?
Reply: 50 to 500 nM

Query: Further, for "COc1cc(N2CCN(C)CC2)ccc1Nc1ncc(Br)c(Nc2ccc3nccnc3c2N(C)S(C)(=O)=O)n1" ?
Reply: ≤ 50 nM

Query: Same read-out for "COc1cc(N2CCC(N3CCN(C)CC3)CC2)c(Cc2ccccc2)cc1Nc1ncc(Cl)c(Nc2ccc3nccnc3c2N(C)S(C)(=O)=O)n1" ?
Reply: 50 to 500 nM

Query: Queued: "CCN(c1c(Nc2nc(Nc3cc(C)c(N4CCC(N(C)C)CC4)cc3OC)ncc2Br)ccc2nccnc12)S(C)(=O)=O"
Reply: ≤ 50 nM

Query: Similarly, "CCc1cc(Nc2ncc(Br)c(Nc3ccc4nccnc4c3N(C)S(=O)(=O)C(F)(F)F)n2)c(OC)cc1N1CCC(N(C)C)CC1" ?
Reply: 50 to 500 nM

Query: One more molecule: "COc1cc(N2CCC(N3CCN(C)CC3)CC2)c(C)cc1Nc1ncc(C)c(Nc2ccc3nccnc3c2N(C)S(C)(=O)=O)n1"
Reply: ≤ 50 nM

Query: Try this molecule next: "CCc1cc(Nc2ncc(Br)c(Nc3ccc4nccnc4c3N(CC)S(C)(=O)=O)n2)c(OC(F)(F)F)cc1N1CCC(N2CCN(C)CC2)CC1"
Reply: 50 to 500 nM

Query: Next molecule up: "CCc1cc(Nc2ncc([N+](=O)[O-])c(Nc3ccc4nccnc4c3N(C)S(C)(=O)=O)n2)c(OC)cc1N1CCC(N2CCN(C)CC2)CC1"
Reply: ≤ 50 nM

Query: What would you report for "COc1cc(N2CCC(N3CCN(C)CC3)CC2)c(C)cc1Nc1ncc(C(F)(F)F)c(Nc2ccc3nccnc3c2N(C)S(C)(=O)=O)n1" ?
Reply: ≤ 50 nM

---

TESTED SYSTEM: various mutants of kinase EGFR (BaF3 cell lines stably transfected with kinase) (Homo sapiens, UniProt P00533, L858R)
Construct: expressed in transfected cells; host or cells: BaF3
Sequence (P00533 25-1210 L858R): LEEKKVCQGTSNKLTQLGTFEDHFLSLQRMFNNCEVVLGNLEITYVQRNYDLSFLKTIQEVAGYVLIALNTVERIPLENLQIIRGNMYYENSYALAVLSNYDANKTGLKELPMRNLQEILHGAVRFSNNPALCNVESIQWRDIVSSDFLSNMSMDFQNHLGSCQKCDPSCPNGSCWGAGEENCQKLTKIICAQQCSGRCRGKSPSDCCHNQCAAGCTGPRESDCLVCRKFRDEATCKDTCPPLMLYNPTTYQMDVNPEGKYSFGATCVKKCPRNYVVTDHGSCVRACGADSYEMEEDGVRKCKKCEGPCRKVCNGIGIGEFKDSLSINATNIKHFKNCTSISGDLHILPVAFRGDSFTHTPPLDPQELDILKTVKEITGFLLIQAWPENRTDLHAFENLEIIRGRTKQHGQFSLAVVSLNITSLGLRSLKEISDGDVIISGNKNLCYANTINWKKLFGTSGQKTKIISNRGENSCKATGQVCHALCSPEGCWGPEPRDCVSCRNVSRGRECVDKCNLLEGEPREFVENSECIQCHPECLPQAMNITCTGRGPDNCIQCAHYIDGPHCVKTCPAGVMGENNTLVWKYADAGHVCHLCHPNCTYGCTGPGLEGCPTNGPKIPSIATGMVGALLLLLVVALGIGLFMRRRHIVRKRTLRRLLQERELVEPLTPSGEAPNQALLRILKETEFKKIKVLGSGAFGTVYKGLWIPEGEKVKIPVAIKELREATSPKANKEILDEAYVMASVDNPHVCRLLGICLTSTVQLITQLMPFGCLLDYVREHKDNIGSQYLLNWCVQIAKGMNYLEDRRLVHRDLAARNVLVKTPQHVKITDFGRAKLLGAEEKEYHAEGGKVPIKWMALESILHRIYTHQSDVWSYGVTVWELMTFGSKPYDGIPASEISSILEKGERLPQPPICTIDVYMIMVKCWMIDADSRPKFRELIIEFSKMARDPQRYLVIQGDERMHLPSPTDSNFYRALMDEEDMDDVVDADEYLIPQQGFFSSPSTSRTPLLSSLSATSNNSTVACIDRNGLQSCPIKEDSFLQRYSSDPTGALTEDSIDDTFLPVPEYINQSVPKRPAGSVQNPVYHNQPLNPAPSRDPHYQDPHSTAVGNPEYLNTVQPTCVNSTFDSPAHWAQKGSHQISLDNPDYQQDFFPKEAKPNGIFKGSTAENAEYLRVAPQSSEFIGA
ASSAY INFO: Growth inhibitory activity of compounds on BaF3 cell lines stably transfected with kinase (MTS, 48 h)
Type: cell-based
CONDITION CONTEXT: BaF3 cells stably transfected with EGFR L858R, read-out: IC50, growth inhibition, L858R
Please go through the items and note down their IC50.

Query: Endpoint output: IC50 of "COc1cc(N2CCC(N3CCN(C)CC3)CC2)c(CC2CC2)cc1Nc1ncc(Cl)c(Nc2ccc3nccnc3c2N(C)S(=O)(=O)C(F)(F)F)n1" . Value?
Reply: 500 to 2500 nM

Query: Now give it for "CCc1cc(Nc2ncc(Cl)c(Nc3ccc4nccnc4c3N(C)S(=O)(=O)C(F)(F)F)n2)c(OC)cc1N1CCN(C)CC1" too.
Reply: 50 to 500 nM

Query: For "CCc1cc(Nc2ncc(OC)c(Nc3ccc4nccnc4c3N(C)S(C)(=O)=O)n2)c(OC)cc1N1CCN(C)CC1" then?
Reply: ≤ 50 nM

Query: Now try "CCc1cc(Nc2ncc(Cl)c(Nc3ccc4nccnc4c3N(C)S(C)(=O)=O)n2)c(OC)cc1N1CCC(N(C)C)CC1" .
Reply: ≤ 50 nM

Query: Now this one: "CCc1cc(Nc2ncc(Cl)c(Nc3ccc4nccnc4c3N(C)S(=O)(=O)CC)n2)c(OC(F)(F)F)cc1N1CCC(N2CCN(C)CC2)CC1"
Reply: 50 to 500 nM

Query: Also need "COc1cc(N2CCC(N3CCN(C)CC3)CC2)ccc1Nc1ncc(F)c(Nc2ccc3nccnc3c2N(C)S(=O)(=O)C2CC2)n1" , thanks.
Reply: 50 to 500 nM

Query: How about this compound: "CCc1cc(Nc2ncc(Cl)c(Nc3ccc4nccnc4c3N(C3CC3)S(C)(=O)=O)n2)c(OC)cc1N1CCN(C)CC1"
Reply: ≤ 50 nM

Query: Then this compound: "CCN(c1c(Nc2nc(Nc3cc(CC4CC4)c(N4CCC(N5CCN(C)CC5)CC4)cc3OC)ncc2Br)ccc2nccnc12)S(C)(=O)=O"
Reply: ≤ 50 nM

Query: Further, for "CCN(c1c(Nc2nc(Nc3cc(C)c(N4CCN(C)CC4)cc3OC)ncc2Cl)ccc2nccnc12)S(C)(=O)=O" ?
Reply: ≤ 50 nM
